- Test system: U-251
- procedure-details: NCI tumour cell line growth inhibition, 48 h
Active and inactive are the calls of the source. Rule as the data show it: active = GI50 up to about 1.1 µM and inactive = higher.
Measured GI50 by item

molecule: N/N=C1\c2ccccc2C2/C(=N\N)c3ccccc3C12 (configuration not stated)
GI50: > 100 µM (inactive)
//
molecule: COc1cc2c(c(OC)c1)C(=O)O[C@H](C)CCCC/C=C/C2
GI50: 9.79 µM (inactive)
//
molecule: CCOC(=O)c1nc2cc(C(F)(F)F)ccc2nc1Nc1ccc(C(=O)OC)s1
GI50: 29.6 µM (inactive)
//
molecule: OCC1OC(n2cnc3cccnc32)CC1O (configuration not stated)
GI50: > 100 µM (inactive)
//
molecule: OC1CCSc2ccccc21 (configuration not stated)
GI50: > 100 µM (inactive)
//
molecule: Cc1nc(N2N=C(c3ccc(Cl)cc3)CCC2=O)sc1[N+](=O)[O-]
GI50: > 100 µM (inactive)
//
molecule: O=C(C[n+]1ccccc1)N/N=C(/CCC(=O)N(Cc1ccccc1)Cc1ccccc1)CC(=O)c1ccccc1
GI50: > 100 µM (inactive)
//
molecule: c1cc2cc(Cc3ccc4[nH]ccc4c3)ccc2[nH]1
GI50: 15.4 µM (inactive)
//
molecule: NC(N)=NCc1ccc2c(c1)OCO2
GI50: > 100 µM (inactive)
//
molecule: COc1ccc(O)cc1C=O
GI50: > 100 µM (inactive)
//
molecule: NCCCNCc1c2ccccc2c(CNCCCN)c2ccccc12
GI50: 33.4 µM (inactive)
//
molecule: CS(=O)(=O)N1CC(CI)c2ccc(O)cc21 (configuration not stated)
GI50: 2.49 µM (inactive)
